# Test system: MCF-7 breast cancer cells
# Method: MTT cell viability assay, MCF-7
# Assay type: cell-based
# Test parameters: Homo sapiens, MCF7, read-out: Cell viability (%) ±SD
API: label(entry) gives criterion met if the entry's viability at 10 µM is strictly smaller than 60%; on equality or larger values it gives criterion not met.

>>> cat("COc1ccc(-c2cc(=O)n3c(ccn3Cc3cn([C@H]4O[C@@H](COC(C)=O)[C@H](OC(C)=O)[C@@H](OC(C)=O)[C@@H]4OC(C)=O)nn3)n2)cc1 (stereo in doubt)")
"criterion met"
>>> cat("CC(=O)OC[C@@H]1O[C@H](n2cc(Cn3ccc4nc(-c5ccc(F)cc5)cc(=O)n43)nn2)[C@@H](OC(C)=O)[C@H](OC(C)=O)[C@H]1OC(C)=O (stereo in doubt)")
"criterion not met"
>>> cat("CC(=O)OC[C@@H]1O[C@H](n2cc(Cn3ccc4nc(-c5ccc6c(c5)OCO6)cc(=O)n43)nn2)[C@@H](OC(C)=O)[C@H](OC(C)=O)[C@H]1OC(C)=O (stereo in doubt)")
"criterion met"
>>> cat("CC(=O)OC[C@@H]1O[C@H](n2cc(Cn3ccc4nc(-c5ccc(Br)cc5)cc(=O)n43)nn2)[C@@H](OC(C)=O)[C@H](OC(C)=O)[C@@H]1OC(C)=O (stereo in doubt)")
"criterion met"
>>> cat("CC(=O)OC[C@@H]1O[C@H](n2cc(Cn3ccc4nc(-c5ccc(C(F)(F)F)cc5)cc(=O)n43)nn2)[C@@H](OC(C)=O)[C@H](OC(C)=O)[C@@H]1OC(C)=O (stereo in doubt)")
"criterion met"

###

viability at 72 h, 100 µM by entry:
# Method: MTT cell viability assay, normal MCF-10A cells
# Format: cell-based
# Test parameters: human, MCF-10A normal mammary epithelial cells
Experimental endpoint: viability at 72 h, 100 µM (%)

>>> result("CC(=O)OC[C@@H]1O[C@H](n2cc(Cn3ccc4nc(-c5ccc(F)cc5)cc(=O)n43)nn2)[C@@H](OC(C)=O)[C@H](OC(C)=O)[C@H]1OC(C)=O (stereo in doubt)")
82
>>> result("COc1ccc(-c2cc(=O)n3c(ccn3Cc3cn([C@H]4O[C@@H](COC(C)=O)[C@H](OC(C)=O)[C@@H](OC(C)=O)[C@@H]4OC(C)=O)nn3)n2)cc1 (stereo in doubt)")
84.2
>>> result("CC(=O)OC[C@@H]1O[C@H](n2cc(Cn3ccc4nc(-c5ccc(C(F)(F)F)cc5)cc(=O)n43)nn2)[C@@H](OC(C)=O)[C@H](OC(C)=O)[C@@H]1OC(C)=O (stereo in doubt)")
84.2
>>> result("CC(=O)OC[C@@H]1O[C@H](n2cc(Cn3ccc4nc(-c5ccc(Br)cc5)cc(=O)n43)nn2)[C@@H](OC(C)=O)[C@H](OC(C)=O)[C@@H]1OC(C)=O (stereo in doubt)")
81.4
>>> result("COc1ccc(-c2cc(=O)n3c(ccn3Cc3cn([C@H]4O[C@H](COC(C)=O)[C@@H](OC(C)=O)[C@H](OC(C)=O)[C@@H]4OC(C)=O)nn3)n2)cc1")
83
>>> result("CC(=O)OC[C@@H]1O[C@H](n2cc(Cn3ccc4nc(-c5ccc6c(c5)OCO6)cc(=O)n43)nn2)[C@@H](OC(C)=O)[C@H](OC(C)=O)[C@H]1OC(C)=O (stereo in doubt)")
78.5

Where do the numbers come from? From paper PMC10762718.
